Quick reference: GI50 of the listed items.
System: ACHN
Experiment notes: NCI tumour cell line growth inhibition, 48 h
Active and inactive are the calls of the source. No stated cut-off is given here; in the data, active = GI50 up to about 1.1 µM and inactive = higher.

| Compound | GI50 |
| --- | --- |
| Cc1[nH]c(=O)nc(N/N=C/c2ccc(Cl)cc2)c1C(=O)Nc1ccc(Cl)cc1 | 54.8 µM (inactive) |
| Cc1cc(Cl)cc2c1NC(=O)C2=O.O=C(c1ccccc1)C(F)(F)F | 75.7 µM (inactive) |
| CCCCCCOc1ccc(C(=O)NOCc2ccccc2)cc1 | > 100 µM (inactive) |
| C/C=C1/C=CC2c3[nH]c4ccccc4c3CCN2C1 (stereo not drawn) | > 400 µM (inactive) |
| Oc1cccc(-c2nc3cc(F)ccc3s2)c1 | 23.8 µM (inactive) |
| CC1=C(C(=O)Nc2ccccc2C)C(c2ccc(Cl)cc2)C(C(=O)Nc2ccccc2C)=C(C)N1 | > 100 µM (inactive) |
| Cc1nc(C)c(N2CCN(CN)CC2)c(O)n1 | > 100 µM (inactive) |
| Cc1ccc2c(ccc(/C=C/c3ccc(O)c4ncccc34)[n+]2C)c1 | 10 µM (inactive) |
| COc1ccc(C(O)(c2ccccc2)c2nccc3ccccc23)cc1 (stereo not drawn) | 12.3 µM (inactive) |
| Cn1ccnc1SC(F)(F)c1nc2ccccc2o1 | > 100 µM (inactive) |
| C[N+]1(C)CCCC(C#N)(c2ccccc2)CC1 (stereo not drawn) | > 100 µM (inactive) |
| CC1=C(C(=O)NNS(=O)(=O)c2ccc(C)cc2)CC(C(=O)NNS(=O)(=O)c2ccc(C)cc2)=C(C)N1 | 84.9 µM (inactive) |
| O=C1c2ccccc2NC2C(O)c3ccccc3N12 (stereo not drawn) | 40.8 µM (inactive) |

----------
Quick reference: GI50 of the listed items.
Test system: T47D
Experiment notes: NCI tumour cell line growth inhibition, 48 h
Calls of active or inactive are those of the source. Rule as the data show it: active = GI50 up to about 1.1 µM and inactive = higher.

| Molecule | GI50 |
| --- | --- |
| CC1(C)CC(=O)C(Cc2ccccc2)(Cc2ccccc2)C(=O)C1 | > 100 µM (inactive) |
| Cn1c2ccc(Cl)cc2c2ccc3c(c21)C(=O)C=CC3=O | > 10 µM (inactive) |
| COc1cc2c[n+]3c4c(c2c(OC)c1OC)CCCC4CC3 (stereo not given) | 27.9 µM (inactive) |
| CCCCNC(=S)N/C=C1\C(=O)Oc2ccccc2C1=O | 81.5 µM (inactive) |
| Oc1cccc(-c2nc3cc(F)ccc3s2)c1 | 0.225 µM (active) |
| O=C1CCCC2=C1CC1=C(CCCC1=O)N2c1ccc(-c2ccccc2)cc1 | > 100 µM (inactive) |
| CN1C(=O)c2c(c3c4ccccc4n(C)c3c3c2c2ccccc2n3C)C1=O | > 100 µM (inactive) |
| CCC(=O)Nc1ncnc2ncn(C(=O)CC)c12 | > 100 µM (inactive) |
| O=C(c1cccs1)N(Cc1cccnc1)C(=S)N(Cc1cccnc1)C(=O)c1cccs1 | > 100 µM (inactive) |
| C=CCNC1=C2C[C@@H](C)C[C@@H](OC)C(OC(=O)CCCN(C)C)[C@H](C)/C=C(\C)[C@@H](OC(N)=O)[C@H](OC)/C=C\C=C(/C)C(=O)NC(=CC1=O)C2=O (stereo not given in full) | 11.5 µM (inactive) |
| CC12CCC(C/C1=N\NC(N)=O)C2(C)C (stereo not given) | > 100 µM (inactive) |
| CC1=NN(c2cc(Cl)c(S(=O)(=O)O)cc2Cl)C2(C1)C(Cl)C(=O)N2c1nc2ccccc2s1 (stereo not given) | 66.1 µM (inactive) |
| CC1(C)CCCCCCCCCC2CC2CCC(C)(C)C1=O (stereo not given) | 18.9 µM (inactive) |
| CC1(C)OC(=O)C(Cc2ccccc2)(Cc2ccccc2)C(=O)O1 | > 100 µM (inactive) |
| CC(C)CNC(=O)O | > 100 µM (inactive) |
| O=C1C=C(N2CC2)C(=O)C=C1N1CC1 | 1.05 µM (active) |
| O=C1c2ccccc2C(=O)c2c(NCCNC(=O)C3CCCN3)ccc(NCCNC(=O)C3CCCN3)c21 (stereo not given) | 30 µM (inactive) |
| COc1ccc(-n2c(N)c(C#N)c(C#N)c2-c2ccco2)cc1 | 47.9 µM (inactive) |
| CCCCCCCCCCC[N+]1(Cc2ccccc2)CC2CCN(Cc3ccccc3)CC2C1 (stereo not given) | 0.166 µM (active) |
| CCOc1ccccc1Nc1ccc(N)cc1S(=O)(=O)O | > 100 µM (inactive) |
